species on record: Rattus norvegicus; experiment: Covalent binding to rat microsomal proteins after 30 min of incubation with [3H]-compound in the presence of NADPH (n=3); type: functional
observationType: Activity
Output spec: single numeric token, no unit.

{"molecule": "CC(C)C1CNC[C@@H](C(=O)N[C@H](Cc2ccc(F)cc2)C(=O)N2CCC(C(=O)NC(C)(C)C)(C3CCCCC3)CC2)N1 (stereo not given in full)", "Activity": 216}

Req: GET /values?readout=Activity&item= CC(C)[C@H]1CN[C@H](C(=O)N[C@H](Cc2ccc(F)cc2)C(=O)N2CCC(C(=O)NC(C)(C)C)(C3CCCCC3)CC2)CN1
Resp: 107

Req: So what does the record say about Activity for CC(C)N(C(=O)C1(C2CCCCC2)CCN(C(=O)[C@@H](Cc2ccc(F)cc2)NC(=O)[C@@H]2CN(C)CCN2)CC1)C(C)C ?
Resp: 2150

Req: Given the entry C[C@H]1CN[C@H](C(=O)N[C@H](Cc2ccc(F)cc2)C(=O)N2CCC(C(=O)NC(C)(C)C)(C3CCCCC3)CC2)CN1 , report its measured Activity.
Resp: 50

Req: May I ask what Activity has been recorded for CC(C)(C)NC(=O)C1(C2CCCCC2)CCN(C(=O)[C@@H](Cc2ccc(F)cc2)NC(=O)[C@@H]2CN[C@@H](C3CC3)CN2)CC1 ?
Resp: 103
